Measured values drawn from patent US7923465B2 for this set.

# Tested Target: UniProtKB P20272
# Sequence (P20272 whole entry): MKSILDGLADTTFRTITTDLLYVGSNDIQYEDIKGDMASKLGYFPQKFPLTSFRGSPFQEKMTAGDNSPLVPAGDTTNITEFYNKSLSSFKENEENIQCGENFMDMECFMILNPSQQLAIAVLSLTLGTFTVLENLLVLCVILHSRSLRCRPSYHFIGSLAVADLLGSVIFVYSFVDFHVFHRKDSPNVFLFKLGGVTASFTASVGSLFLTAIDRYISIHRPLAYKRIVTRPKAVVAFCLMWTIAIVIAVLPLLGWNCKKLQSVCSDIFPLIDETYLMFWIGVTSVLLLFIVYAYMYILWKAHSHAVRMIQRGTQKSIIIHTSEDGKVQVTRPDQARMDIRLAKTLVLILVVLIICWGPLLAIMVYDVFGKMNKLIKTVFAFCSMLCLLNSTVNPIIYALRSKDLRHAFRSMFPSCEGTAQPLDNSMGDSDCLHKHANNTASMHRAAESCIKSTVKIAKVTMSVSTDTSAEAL
# Method Description: GTPγS binding assay, CB1 functional assay in rat cerebellar membrane (Protocol VIII)
# Type: biochemical
# Set-up: 10 μg rat cerebellum membrane; from tissue; host or cells: rat cerebellum membrane, prepared in-house
# Condition Details: GTPγS binding, tested at 1 uM in presence of 1 μM WIN 55,212-2; read-out: % Inhibition of WIN-55212-2 induced stimulation
Measured Attribute: inhibition at 1 µM

compound=O=C(NNc1ccc(Cl)cc1Cl)c1nn(-c2ccc(Cl)cc2)c2c1C1CC3CC(C1)CC2C3 measured_attribute="inhibition at 1 µM" val=104%
compound=O=C(NN1CCCCC1)c1nn(-c2ccc(Cl)cc2Cl)c2c1C1CC3CC(C1)CC2C3 measured_attribute="inhibition at 1 µM" val=87.9%
compound="Cl.O=C(NNc1ccc(F)cc1)c1nn(-c2ccc(Cl)cc2)c2c1C1CC3CC(C1)CC2C3 [Example 131, hydrochloride]" measured_attribute="inhibition at 1 µM" val=86%
compound=O=C(NC1CCCCC1)c1nn(-c2ccc(Cl)cc2)c2c1C1CC3CC(C1)CC2C3 measured_attribute="inhibition at 1 µM" val=65.3%
compound="O=C(NCc1ccc(F)cc1)c1nn(-c2ccc(Cl)cc2Cl)c2c1C1CCC2C1 (centres unmarked)" measured_attribute="inhibition at 1 µM" val=98.9%
compound=O=C(NCCc1ccccc1)c1nn(-c2ccc(Cl)cc2Cl)c2c1C1CC3CC(C1)CC2C3 measured_attribute="inhibition at 1 µM" val=88%
compound=O=C(NNc1ccccc1Cl)c1nn(-c2ccc(Cl)cc2Cl)c2c1C1CC3CC(C1)CC2C3 measured_attribute="inhibition at 1 µM" val=75.5%
compound="O=C(NNc1ccccc1F)c1nn(-c2ccc(Cl)cc2Cl)c2c1C1CCC2C1 (centres unmarked)" measured_attribute="inhibition at 1 µM" val=94.5%
compound="O=C(NC1CCCCC1)c1nn(-c2ccc(Cl)cc2Cl)c2c1C1CCC2C1 (centres unmarked)" measured_attribute="inhibition at 1 µM" val=74.7%
compound="O=C(NCC1CCCCC1)c1nn(-c2ccc(Cl)cc2Cl)c2c1C1CCC2C1 (centres unmarked)" measured_attribute="inhibition at 1 µM" val=59.1%
compound="O=C(NC1CCCCC1)c1nn(-c2ccc(F)cc2F)c2c1C1CCC2C1 (centres unmarked)" measured_attribute="inhibition at 1 µM" val=35.3%
compound=O=C(NNc1ccccc1Cl)c1nn(-c2ccc(Cl)cc2)c2c1C1CC3CC(C1)CC2C3 measured_attribute="inhibition at 1 µM" val=99.1%
compound="O=C(NCc1ccccc1)c1nn(-c2ccc(Cl)cc2Cl)c2c1C1CCC2C1 (centres unmarked)" measured_attribute="inhibition at 1 µM" val=91.4%
compound=CN(NC(=O)c1nn(-c2ccc(Cl)cc2)c2c1C1CC3CC(C1)CC2C3)C1CCCCC1 measured_attribute="inhibition at 1 µM" val=71.5%
